Data credit: patent US20240150293A1

Biological target: Mcl-1 protein (UniProtKB Q07820) (Homo sapiens (Human), UniProt Q07820)
Sequence (Q07820 whole entry): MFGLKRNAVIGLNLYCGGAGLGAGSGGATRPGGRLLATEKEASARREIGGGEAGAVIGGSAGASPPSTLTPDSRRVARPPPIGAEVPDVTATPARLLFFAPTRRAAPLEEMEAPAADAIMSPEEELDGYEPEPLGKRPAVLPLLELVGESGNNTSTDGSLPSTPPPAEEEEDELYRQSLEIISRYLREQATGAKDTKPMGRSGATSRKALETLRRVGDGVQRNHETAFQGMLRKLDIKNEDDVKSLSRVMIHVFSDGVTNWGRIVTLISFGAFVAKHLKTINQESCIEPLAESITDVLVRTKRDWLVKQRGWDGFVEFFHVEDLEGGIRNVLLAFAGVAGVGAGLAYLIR
Assay: Inhibition of Mcl-1 by the fluorescence polarisation assay (Example A, Method A)
Conditions: fluorescence polarization assay
Readings of Ki for the listed compounds

>  <COMPOUND>
Cc1ccc(C2Cc3ccccc3C23CCC(Nc2cccc(Br)c2)(C(=O)O)CC3)s1 (single isomer, unassigned) [Example 262]

>  <Ki>
236 nM

$$$$
>  <COMPOUND>
Cc1csc2nccc(OC[C@H](C)C[C@H]3Cc4ccccc4[C@]34CC[C@@](Nc3cccc(Cl)c3)(C(=O)O)CC4)c12

>  <Ki>
24.2 nM

$$$$
>  <COMPOUND>
Cc1ccc(C)c2c1CC(C)C21CCC(Nc2cccc(Br)c2)(C(=O)O)CC1 (stereo not shown)

>  <Ki>
6400 nM

$$$$

Field: next compound
Measured Ki, O=C(O)[C@]1(Nc2cccc(Cl)c2)CC[C@]2(CC1)C(CCCc1ccc(Cl)cc1)=Cc1ccccc12 : 846 nM

====

Target: Mcl-1 protein (UniProtKB Q07820) (Homo sapiens (Human), UniProt Q07820)
Assay: Inhibition of Mcl-1 by the fluorescence polarisation assay (Example A, Method A)
Details: fluorescence polarization assay
RESULT_TYPE: pKi
Please report pKi as the negative decimal logarithm of the molar concentration, giving only the number.

The cases that follow already have their pKi on record.
>  <COMPOUND>
COc1cc(OCCC2Cc3ccccc3[C@]23CC[C@@](Nc2cccc(Cl)c2)(C(=O)O)CC3)ccn1 (stereo partly drawn)

>  <pKi>
6.86

$$$$
>  <COMPOUND>
O=C1c2ccccc2[C@]2(CC[C@@](Nc3cccc(Cl)c3)(C(=O)O)CC2)N1CCCOc1ccccc1

>  <pKi>
6.19

$$$$
>  <COMPOUND>
O=C(O)[C@]1(Nc2cccc(Cl)c2)CC[C@]2(CC1)C(c1cccc(Cc3ccccc3)c1)=Cc1ccccc12

>  <pKi>
6.31

$$$$
>  <COMPOUND>
O=C(O)[C@]1(Nc2cccc(Cl)c2)CC[C@]2(CC1)C(COCCc1ccc(Cl)cc1)=Cc1ccccc12

>  <pKi>
5.96

$$$$

Memo: O=C(O)[C@]1(Nc2cccc(Cl)c2)CC[C@@]2(CC1)c1ccccc1CC2CCOc1ccnc2ccsc12 (stereo partly drawn) , reported pKi: 6.91

Lookup result for COc1ccc([C@H]2Cc3ccccc3[C@]23CC[C@@](Nc2cccc(Br)c2)(C(=O)O)CC3)cc1 ; measured pKi: 4.87

GET /value?item= O=C(O)[C@]1(Nc2cccc(Cl)c2)CC[C@]2(CC1)C(c1ccc3occc3c1)=Cc1ccccc12 &field=pKi returns 5.91

Lab book: pKi of O=C(O)[C@]1(Nc2cccc(Cl)c2)CC[C@]2(CC1)C(c1cccc(OCc3ccccc3)c1)=Cc1ccccc12 noted as 5.82

// sample Cc1cccc(C2Cc3ccccc3[C@]23CC[C@@](Nc2cccc(Cl)c2)(C(=O)O)CC3)c1 (single isomer, unassigned) [Example 346] , its pKi was 5.03

Just so you know, measured pKi for O=C(O)[C@]1(Nc2cccc(Cl)c2)CC[C@]2(CC1)C(C#CCOc1ccccc1)=Cc1ccccc12 came out at 7.25

// pKi value for COc1cccc(C)c1C1Cc2ccccc2[C@]12CC[C@@](Nc1cccc(Cl)c1)(C(=O)O)CC2 (mixture of isomers) : 5.24

Note to self: pKi recorded for O=C(O)C1(Nc2cccc(Br)c2)CCC2(CC1)c1ccccc1-c1ccccc12 was 5.24
